Here's a batch of compounds along with measured IC50 for human DNMT1 (Homo sapiens (Human), UniProt P26358).

COc1cc2c3c(c(-c4ccc(C)o4)nc2cc1OCCCN1CCCC1)CCCN3CCCN1CCCC1 :: 0.5 to 1 µM
COc1cc2c3c(c(-c4cc(C)oc4C)nc2cc1OCCCN1CCCC1)CCC(CC1CCN(C)CC1)N3 (stereo not shown) :: 1 to 10 µM
COc1cc2c3c(c(-c4ccc(C)o4)nc2cc1OCCCN1CCCC1)CC[C@H](CC1CCN(C)CC1)N3 (single isomer, unassigned) :: 0.5 to 1 µM
COc1cc2c(cc1OCCCN1CCCC1)nc(-c1ccc(C)o1)c1c(=O)n(CC3CCN(C)CC3)n(CC3CCN(C)CC3)c12 :: 1 to 10 µM
COc1cc2c(cc1OCCCN1CCCC1)nc(-c1cc(C)oc1C)c1cc(CC3CCN(C)CC3)[nH]c12 :: 1 to 10 µM

IN: Determine reported IC50 for COc1cc2c(cc1OCCCN1CCCC1)nc(-c1ccc(C)o1)c1c(=O)n(C3CCN(C)CC3)[nH]c12 ; test system: human DNMT1 (Homo sapiens (Human), UniProt P26358).
Sequence (P26358 whole entry): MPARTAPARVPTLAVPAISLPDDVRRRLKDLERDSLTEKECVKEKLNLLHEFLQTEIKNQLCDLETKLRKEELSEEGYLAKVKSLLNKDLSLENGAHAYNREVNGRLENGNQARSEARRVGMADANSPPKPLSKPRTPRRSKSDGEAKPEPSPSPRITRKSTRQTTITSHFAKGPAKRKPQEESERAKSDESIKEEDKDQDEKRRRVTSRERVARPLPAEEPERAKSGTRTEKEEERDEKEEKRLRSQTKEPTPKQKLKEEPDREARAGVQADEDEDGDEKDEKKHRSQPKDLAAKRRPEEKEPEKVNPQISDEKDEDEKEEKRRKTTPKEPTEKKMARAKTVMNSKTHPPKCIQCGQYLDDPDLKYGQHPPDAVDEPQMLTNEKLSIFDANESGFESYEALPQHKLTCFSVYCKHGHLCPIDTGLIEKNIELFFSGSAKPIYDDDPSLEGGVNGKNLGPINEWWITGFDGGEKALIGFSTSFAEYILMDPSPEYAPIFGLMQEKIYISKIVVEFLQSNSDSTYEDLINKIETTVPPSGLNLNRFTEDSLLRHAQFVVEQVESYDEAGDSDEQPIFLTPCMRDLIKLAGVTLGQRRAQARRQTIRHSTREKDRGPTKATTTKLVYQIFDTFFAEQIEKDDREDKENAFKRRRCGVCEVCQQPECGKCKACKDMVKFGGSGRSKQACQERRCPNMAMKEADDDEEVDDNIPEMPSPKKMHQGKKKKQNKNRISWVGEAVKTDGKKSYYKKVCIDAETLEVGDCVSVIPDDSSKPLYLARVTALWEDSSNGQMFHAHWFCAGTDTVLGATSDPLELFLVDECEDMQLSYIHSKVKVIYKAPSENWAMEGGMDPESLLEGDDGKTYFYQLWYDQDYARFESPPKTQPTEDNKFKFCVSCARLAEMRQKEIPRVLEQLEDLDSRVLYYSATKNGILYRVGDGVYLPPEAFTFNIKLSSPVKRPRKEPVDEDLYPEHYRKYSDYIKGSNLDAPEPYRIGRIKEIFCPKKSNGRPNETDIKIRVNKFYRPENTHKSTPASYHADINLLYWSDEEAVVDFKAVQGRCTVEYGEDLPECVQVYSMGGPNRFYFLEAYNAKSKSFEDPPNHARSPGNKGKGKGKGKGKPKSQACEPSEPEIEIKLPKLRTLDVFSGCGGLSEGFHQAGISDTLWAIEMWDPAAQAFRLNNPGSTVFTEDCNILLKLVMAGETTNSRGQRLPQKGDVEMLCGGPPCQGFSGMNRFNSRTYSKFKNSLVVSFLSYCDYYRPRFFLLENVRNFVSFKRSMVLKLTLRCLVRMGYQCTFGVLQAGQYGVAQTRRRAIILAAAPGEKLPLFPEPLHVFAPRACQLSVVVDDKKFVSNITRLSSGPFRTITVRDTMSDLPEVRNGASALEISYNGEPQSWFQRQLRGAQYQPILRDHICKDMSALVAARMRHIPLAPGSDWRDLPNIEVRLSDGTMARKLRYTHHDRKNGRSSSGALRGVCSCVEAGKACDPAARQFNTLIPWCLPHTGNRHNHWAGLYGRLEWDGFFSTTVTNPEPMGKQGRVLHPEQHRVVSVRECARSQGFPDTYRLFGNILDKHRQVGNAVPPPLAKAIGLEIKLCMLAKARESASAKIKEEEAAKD
OUT: 1 to 10 µM

IN: // fetch IC50; item: COc1cc2c3c(c(-c4ccc(C)o4)nc2cc1OCCCN1CCCC1)CCC(CC1CCN(C(C)=O)CC1)N3 (stereo not shown) ; system: human DNMT1 (Homo sapiens (Human), UniProt P26358)
OUT: 1 to 10 µM

* * *

# target entity: human G9a enzyme (Homo sapiens (Human), UniProt Q96KQ7)
# Sequence (Q96KQ7 whole entry): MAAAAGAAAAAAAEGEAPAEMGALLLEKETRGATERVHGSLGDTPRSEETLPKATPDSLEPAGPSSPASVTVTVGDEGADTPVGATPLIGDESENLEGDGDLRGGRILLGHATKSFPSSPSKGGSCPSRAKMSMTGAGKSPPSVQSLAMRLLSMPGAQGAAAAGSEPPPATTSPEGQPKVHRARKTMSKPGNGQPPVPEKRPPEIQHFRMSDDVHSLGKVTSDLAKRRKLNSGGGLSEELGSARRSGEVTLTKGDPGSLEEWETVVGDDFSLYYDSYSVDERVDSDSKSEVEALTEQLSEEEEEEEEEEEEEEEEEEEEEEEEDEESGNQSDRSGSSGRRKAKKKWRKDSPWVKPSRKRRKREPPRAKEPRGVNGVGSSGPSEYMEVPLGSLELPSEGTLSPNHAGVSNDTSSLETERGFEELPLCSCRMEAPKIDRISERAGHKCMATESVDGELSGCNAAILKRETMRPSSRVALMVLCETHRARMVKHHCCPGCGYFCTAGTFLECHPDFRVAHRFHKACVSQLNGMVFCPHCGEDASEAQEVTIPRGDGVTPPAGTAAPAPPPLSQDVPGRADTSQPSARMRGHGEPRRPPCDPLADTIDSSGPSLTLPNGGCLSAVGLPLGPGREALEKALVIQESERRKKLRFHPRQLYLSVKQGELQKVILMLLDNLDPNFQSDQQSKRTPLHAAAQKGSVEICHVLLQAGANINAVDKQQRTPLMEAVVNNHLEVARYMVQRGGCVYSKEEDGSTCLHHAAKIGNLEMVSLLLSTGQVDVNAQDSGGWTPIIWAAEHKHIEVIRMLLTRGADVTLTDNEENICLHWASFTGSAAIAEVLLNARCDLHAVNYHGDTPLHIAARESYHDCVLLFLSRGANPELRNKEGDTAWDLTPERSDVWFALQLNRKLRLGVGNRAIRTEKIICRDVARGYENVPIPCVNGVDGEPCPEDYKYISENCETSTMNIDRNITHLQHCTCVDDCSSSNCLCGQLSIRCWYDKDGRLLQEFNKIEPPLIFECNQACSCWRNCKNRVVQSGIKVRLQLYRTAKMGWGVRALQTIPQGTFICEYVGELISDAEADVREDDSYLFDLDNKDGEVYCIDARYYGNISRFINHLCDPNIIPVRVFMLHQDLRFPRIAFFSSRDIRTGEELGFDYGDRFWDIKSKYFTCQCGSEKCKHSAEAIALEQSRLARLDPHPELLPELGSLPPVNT
result type: IC50

# count of solved cases: 6
COc1cc2c(cc1OCCCN1CCCC1)nc(-c1ccc(C)o1)c1c(=O)n(CC3CCN(C)CC3)[nH]c12 :: > 10000 nM
COc1cc2c(cc1OCCCN1CCCC1)nc(-c1ccc(C)o1)c1cccnc12 :: 1000 to 10000 nM
COc1cc2c3c(c(-c4ccc(C)o4)nc2cc1OCCCN1CCCC1)CCC(CC1CCN(C2CC2)CC1)N3 (stereo not shown) :: < 100 nM
COc1cc2c3c(c(-c4ccc(C)o4)nc2cc1OCCCN1CCCC1)CCCN3CCCN1CCCC1 :: > 10000 nM
COc1cc2c(cc1OCCCN1CCCC1)nc(-c1cc(C)oc1C)c1ccc(CC3CCN(C)CC3)nc12 :: 100 to 500 nM
COc1cc2c3c(c(-c4ccc(C)o4)nc2cc1OCCCN1CCCC1)CCC(CC1CCN(C(C)=O)CC1)N3 (stereo not shown) :: < 100 nM

IN: Fill in: IC50 on human G9a enzyme (Homo sapiens (Human), UniProt Q96KQ7), entry COc1cc2c3c(c(-c4ccc(C)o4)nc2cc1OCCCN1CCCC1)CCC(CC1CCNCC1)N3 (stereo not shown)
OUT: < 100 nM

* * *

pIC50: −log10 of the molar value.
Here's what we have: pIC50 numbers for UniProt Q96KQ7.

Here are 5 compounds together with their reported answers.
COc1cc2c3c(c(-c4ccc(C)o4)nc2cc1OCCCN1CCCC1)CCCN3 :: > 7.00
COc1ccc2c3c(c(-c4ccc(C)o4)nc2c1)CCCN3 :: < 5.00
COc1cc2c3c(c(-c4ccc(C)o4)nc2cc1OCCCN1CCCC1)CC[C@H](CC1CCN(C)CC1)N3 (single isomer, unassigned) :: > 7.00
COc1cc2c3c(c(-c4ccc(C)o4)nc2cc1OCCCN1CCCC1)CCC(CC1CCN(C2CCCCC2)CC1)N3 (stereo not drawn) :: > 7.00
COc1cc2c3c(c(-c4ccc(C)o4)nc2cc1OCCCN1CCCC1)CCC(CC1CCN(C)CC1)N3 (stereo not drawn) :: > 7.00

IN: Quote pIC50 reported for COc1cc2c(cc1OCCCN1CCCC1)nc(-c1ccccc1)c1cc(CC3CCN(C)CC3)[nH]c12 please.
OUT: 6.30 to 7.00

IN: Write down pIC50 measured for item COc1cc2c(cc1OCCCN1CCCC1)nc(-c1cc(C)oc1C)c1cc(CC3CCN(C)CC3)[nH]c12
OUT: 6.00 to 6.30

IN: Please give the documented pIC50 of COc1cc2c(cc1OCCCN1CCCC1)nc(-c1ccc(C)o1)c1cc(CC3CCN(C)CC3)[nH]c12
OUT: 6.30 to 7.00

IN: // Input: COc1cc2c3c(c(-c4ccc(C)o4)nc2cc1OCCCN1CCCC1)CCC(CC1CCN(C(C)C)CC1)N3 (stereo not drawn) . Output its pIC50 only.
OUT: > 7.00

IN: Please list pIC50 recorded for the compound Cc1ccc(-c2nc3cc(OCCCN4CCCC4)ccc3c3c2CCCN3)o1
OUT: 5.00 to 6.00

* * *

Lab note: IC50 readings collected with UniProt:P26358 for the following compounds.

COc1cc2c(cc1OCCCN1CCCC1)nc(-c1ccc(C)o1)c1cc(CC3CCN(C(C)C)CC3)[nH]c12 :: 0.5 to 1 µM
COc1cc2c3c(c(-c4ccc(C)o4)nc2cc1OCCCN1CCCC1)CCC(CC1CCNCC1)N3 (stereo not drawn) :: 0.5 to 1 µM
COc1cc2c3c(c(-c4ccc(C)o4)nc2cc1OCCCN1CCCC1)CCC(CC1CCN(C(C)C)CC1)N3 (stereo not drawn) :: 0.5 to 1 µM
CCc1ccc(-c2nc3cc(OCCCN4CCCC4)c(OC)cc3c3[nH]c(CC4CCN(C)CC4)cc23)o1 :: 0.5 to 1 µM
COc1cc2c(cc1OCCCN1CCCC1)nc(-c1cc(C)oc1C)c1ccc(CC3CCN(C)CC3)nc12 :: > 10 µM

Now for a further compound.
IN: For UniProt:P26358, give the measured IC50 of the entry COc1cc2c3c(c(-c4ccc(C)o4)nc2cc1OCCCN1CCCC1)CCC(CC1CCN(C2CC2)CC1)N3 (stereo not drawn)
OUT: 0.5 to 1 µM

* * *

human G9a enzyme (Homo sapiens (Human), UniProt Q96KQ7): reported IC50 for various compounds.

COc1cc2c(cc1OCCCN1CCCC1)nc(-c1ccc(C)o1)c1c(=O)n(C3CCN(C)CC3)[nH]c12 :: > 10 µM

IN: Give IC50 for COc1cc2c(cc1OCCCN1CCCC1)nc(-c1ccc(C)o1)c1c(=O)n(CC3CCN(C)CC3)n(CC3CCN(C)CC3)c12
OUT: > 10 µM

IN: Specify IC50 for COc1cc2c(cc1OCCCN1CCCC1)nc(-c1ccc(C)o1)c1ccc(CC3CCNCC3)nc12 and stop.
OUT: 0.1 to 0.5 µM

* * *

# target entity: human DNMT1 (Homo sapiens (Human))
Listed below: IC50 values for each entry.

Guide cases for IC50, answers given:
COc1cc2c(cc1OCCCN1CCCC1)nc(-c1ccc(C)o1)c1ccc(CC3CCN(C)CC3)nc12 :: 1000 to 10000 nM
COc1cc2c3c(c(-c4ccc(C)o4)nc2cc1OCCCN1CCCC1)CCC(CC1CCN(C2CCCCC2)CC1)N3 (stereo not drawn) :: 500 to 1000 nM

IN: Read off the recorded IC50 for COc1cc2c(cc1OCCCN1CCCC1)nc(-c1ccccc1)c1cc(CC3CCN(C)CC3)[nH]c12
OUT: 500 to 1000 nM

* * *

// endpoint IC50 / system human G9a enzyme (Homo sapiens (Human))

Here are 4 compounds together with their reported answers.
COc1cc2c(cc1OCCCN1CCCC1)nc(-c1ccc(C)o1)c1cc(CC3CCN(C(C)C)CC3)[nH]c12 :: 0.1 to 0.5 µM
COc1cc2c3c(c(-c4ccc(C)o4)nc2cc1OCCCN1CCCC1)CC[C@@H](CC1CCN(C)CC1)N3 (single isomer, unassigned) :: < 0.1 µM
CCc1ccc(-c2nc3cc(OCCCN4CCCC4)c(OC)cc3c3[nH]c(CC4CCN(C)CC4)cc23)o1 :: 0.1 to 0.5 µM
COc1cc2c(cc1OCCCN1CCCC1)nc(-c1ccc(C)o1)c1ccc(CC3CCN(C)CC3)nc12 :: < 0.1 µM

IN: Please look at this compound and report its IC50: COc1cc2c3c(c(-c4cc(C)oc4C)nc2cc1OCCCN1CCCC1)CCC(CC1CCN(C)CC1)N3 (centres unmarked)
OUT: < 0.1 µM

* * *

pIC50: −log10 of the molar value.
Consider the following pIC50 values measured on UniProtKB P26358.

A selection of reference data follows.
COc1cc2c(cc1OCCCN1CCCC1)nc(-c1ccc(C)o1)c1cccnc12 :: 5.00 to 6.00
COc1cc2c(cc1OCCCN1CCCC1)nc(-c1ccc(C)o1)c1c(=O)n(CC3CCN(C)CC3)[nH]c12 :: 5.00 to 6.00
COc1cc2c3c(c(-c4ccc(C)o4)nc2cc1OCCCN1CCCC1)CCC(CC1CCN(C)CC1)N3 (stereo not drawn) :: 6.30 to 7.00
COc1cc2c3c(c(-c4ccc(C)o4)nc2cc1OCCCN1CCCC1)CCCN3 :: 5.00 to 6.00
COc1ccc2c3c(c(-c4ccc(C)o4)nc2c1)CCCN3 :: 5.00 to 6.00

Please examine the following record next.
IN: // fetch pIC50 for COc1cc2c3c(c(-c4ccc(C)o4)nc2cc1OCCCN1CCCC1)CC[C@@H](CC1CCN(C)CC1)N3 (single isomer, unassigned) ; system: UniProtKB P26358
OUT: 6.00 to 6.30
